Biological target: T1, OX40 on HT1080 OX40 stable cell line (Homo sapiens (Human), UniProt P43489 29-277)
T1 sequence: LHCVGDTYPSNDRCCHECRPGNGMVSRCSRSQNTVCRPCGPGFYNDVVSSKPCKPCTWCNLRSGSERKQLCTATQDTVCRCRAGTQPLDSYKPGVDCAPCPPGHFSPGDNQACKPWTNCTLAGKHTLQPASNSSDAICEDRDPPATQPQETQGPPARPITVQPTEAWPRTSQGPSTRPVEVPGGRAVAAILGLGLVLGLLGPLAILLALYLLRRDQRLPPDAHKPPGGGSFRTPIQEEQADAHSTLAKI
Assay: cell-based or functional assay
Reported HT1080 Agonist Assay EC50 (IL-8 secretion) by item:
REPORTED_ENDPOINT: HT1080 Agonist Assay EC50 (IL-8 secretion) (nM)

BINDER	TEST_VALUE
murine antibody A5 (40H11C2F5) (antibody, V domains shown, also called MAb A5; H5/L5) VH: EVQLQQSGPELVKPGASVKISCKASGYTFTENYMNWVKQSHGKSLEWIGDINRNNGGTRYNQKFKGKATLTVDKSSSTDYMELRSLTSEDSAVYYCGGTVVGYFDVWGTGTTVTVSS VL: DIQMTQIITSLSASLGDRVTISCRSSQDISNYLNWYQQKPDGTVKLLIYYTSRLKSGVPSRFSGSGSGTDYSLTISNLEQEDIATYFCQQGNTLPWTFGGGTKLEIK	2.8
murine antibody A4 (13C2G10F10) (antibody, V domains shown, also called MAb A4; H4/L4) VH: EVQLQQSGPELVKPGASVKMSCKASGYTFTSYIMHWVKQKPGQGLEWIGYINPYNDGTKYNEKFKGKATLTSDKSSSTAYMELSSLTSEDSAVYYCANYYGSSYTMDYWGQGTSVTVSS VL: DIQMTQTTSSLSASLGDRVTISCRASQDIRNYLNWYQQKPDGSVKLLIYYTSRLHSGVPSRFSGSGSGTDYSLTISNLEQEDIATYFCQQGNTLPWTFGGGTKLEIK	8.08
murine antibody A3 (14F2C2D7) (antibody, V domains shown, also called MAb A3; H3/L3) VH: QVQLKESGPGLVAPSQSLSITCTVSGFSLSSYGVHWVRQPPGKGLEWLGVIWAGGSTDYNSALMSRLSISKDNSKSQVVLKMNSLQTDDTAMYYCAREEVWDWGQGTLVTVSA VL: DIQMTQTTSSLSASLGDRVTISCRASQDISNYLNWYQQKPDGTVKLLIYYTSRLQSGVPSRFSGSGSGTDYSLTISNLEQEDIATYFCQQGNTLPLTFGAGTKLELK	6.74
murine antibody A6 (2G2E2D8) (antibody, V domains shown, also called MAb A6; Murine A6) VH: EVQLQQSGPELVKPGASVKMSCKASGYTFTSYVMHWVKQKPGQGLEWIGYINPYNDGTKYNEKFKGKATLTSDKSSSTAYMELSSLTSEDSAVYYCANYYGSNYAMDYWGQGTSVTVSS VL: DIQMTQTTSSLSASLGDRVTISCRASQDIRNYLNWYQQKPDGTVKLLIYYTSRLHSGVPSRFSGSGSGTDYSLTISNLEQEDIATYFCQQGNTLPWTFGGGTKLEIK	1.56

Data origin: patent US20210024640A1
